Origin of values: patent US20260069689A1

# Measured Target: T1, SARS-CoV2 Spike ecto foldon Trimer expressed with a C-terminal myc-myc-hexahistidine (SARS-CoV-2, UniProt P0DTC2 14-1213)
# T1 construct: extracellular domain
# Procedure Text: SPR Biacore, mAb captured by anti-hFc, 37C
Item-by-item account of koff

>  <Binder>
mAb14285 (antibody, V domains shown) VH: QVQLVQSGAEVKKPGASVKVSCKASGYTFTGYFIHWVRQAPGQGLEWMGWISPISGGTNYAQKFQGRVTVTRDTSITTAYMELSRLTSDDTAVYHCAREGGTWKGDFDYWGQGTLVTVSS VL: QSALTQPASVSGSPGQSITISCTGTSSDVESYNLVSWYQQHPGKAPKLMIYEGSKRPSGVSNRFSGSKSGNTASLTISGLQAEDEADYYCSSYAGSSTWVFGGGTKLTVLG

>  <koff [s⁻¹]>
4.18e-05

$$$$
>  <Binder>
mAb14230 (antibody, V domains shown) VH: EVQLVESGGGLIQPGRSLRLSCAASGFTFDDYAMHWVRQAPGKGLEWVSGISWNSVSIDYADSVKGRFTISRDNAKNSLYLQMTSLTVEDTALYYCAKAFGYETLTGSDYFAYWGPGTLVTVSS VL: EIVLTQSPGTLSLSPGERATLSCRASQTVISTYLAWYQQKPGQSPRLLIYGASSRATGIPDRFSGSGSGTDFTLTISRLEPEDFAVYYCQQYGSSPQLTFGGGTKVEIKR

>  <koff [s⁻¹]>
8.97e-05

$$$$
>  <Binder>
mAb15163 (antibody, V domains shown) VH: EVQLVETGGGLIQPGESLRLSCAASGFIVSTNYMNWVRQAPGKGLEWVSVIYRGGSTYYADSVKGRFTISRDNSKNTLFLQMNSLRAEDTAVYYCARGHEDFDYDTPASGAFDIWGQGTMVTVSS VL: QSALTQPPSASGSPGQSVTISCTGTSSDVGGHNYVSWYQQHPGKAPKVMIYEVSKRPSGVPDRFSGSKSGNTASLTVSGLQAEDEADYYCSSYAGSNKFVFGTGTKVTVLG

>  <koff [s⁻¹]>
4.85e-05

$$$$
>  <Binder>
mAb14315 (antibody, V domains shown) VH: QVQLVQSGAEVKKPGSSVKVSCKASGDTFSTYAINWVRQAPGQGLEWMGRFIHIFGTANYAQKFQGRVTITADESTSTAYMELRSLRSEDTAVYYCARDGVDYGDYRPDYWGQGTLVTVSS VL: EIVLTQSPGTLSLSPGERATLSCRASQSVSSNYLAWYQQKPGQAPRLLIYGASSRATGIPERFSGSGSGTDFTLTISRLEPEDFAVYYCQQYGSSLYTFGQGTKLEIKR

>  <koff [s⁻¹]>
3.25e-05

$$$$
>  <Binder>
mAb14232 (antibody, V domains shown) VH: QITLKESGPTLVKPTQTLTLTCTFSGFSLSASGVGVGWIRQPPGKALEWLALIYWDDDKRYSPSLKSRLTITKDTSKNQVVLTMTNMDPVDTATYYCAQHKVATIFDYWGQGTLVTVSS VL: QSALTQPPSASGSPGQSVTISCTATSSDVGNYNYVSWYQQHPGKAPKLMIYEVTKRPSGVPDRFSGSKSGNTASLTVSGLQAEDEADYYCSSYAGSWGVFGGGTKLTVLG

>  <koff [s⁻¹]>
0.000133

$$$$
